Source listed as ChEMBL document CHEMBL4602617.

systemUnderTest: Mast/stem cell growth factor receptor Kit (Homo sapiens, UniProt P10721)
assayRemarks: Inhibition of human recombinant His-tagged KIT cytoplasmic domain expressed in baculovirus expression system using Tyr6 peptide as measured after 1 hr in presence of ATP by Z'-LYTE assay
reportedMetric: IC50

Query: Any idea what IC50 was measured for "C[C@@H]1C[C@H]1C(=O)N1CCN(c2cnc(C#N)c(-c3cnn(C)c3)n2)C[C@H]1C" ?
Result: > 100 µM

----------
systemUnderTest: Phosphatidylinositol 4,5-bisphosphate 3-kinase catalytic subunit gamma isoform (Homo sapiens)
assayRemarks: Inhibition of His-tagged recombinant human full length PI3K p110gamma expressed in baculovirus expression system using PIP2:PS lipid as substrate incubated for 1 hr in presence of ATP by Adapta assay
reportedMetric: IC50 (nM)
Quick reminder: number only, in nM, skip the unit.

Query: Entry under review: "C[C@@H]1C[C@H]1C(=O)N1CCN(c2cnc(C#N)c(-c3cnn(C)c3)n2)C[C@H]1C" . Reported IC50?
Result: 945

----------
systemUnderTest: Proto-oncogene tyrosine-protein kinase receptor Ret (Homo sapiens, UniProt P07949, Y791F)
assayRemarks: Inhibition of recombinant human GST-tagged RET Y791F mutant cytoplasmic domain expressed in baculovirus expression system using tyr02 peptide as substrate incubated for 60 mins in presence of ATP by Z'-LYTE assay
reportedMetric: IC50

Query: What IC50 value was documented for this compound, "C[C@@H]1C[C@H]1C(=O)N1CCN(c2cnc(C#N)c(-c3cnn(C)c3)n2)C[C@H]1C" ?
Result: > 100 µM

----------
systemUnderTest: Tyrosine-protein kinase JAK2 (Homo sapiens, UniProt O60674, V617F)
assayRemarks: Inhibition of human recombinant GST tagged JAK2 V617F mutant catalytic domain expressed in baculovirus expression system using Tyr6 peptide as substrate measured after 1 hr in presence of ATP by Z'-LYTE assay
reportedMetric: IC50

Query: Request: IC50, test system Tyrosine-protein kinase JAK2 (Homo sapiens, UniProt O60674, V617F), entry "C[C@@H]1C[C@H]1C(=O)N1CCN(c2cnc(C#N)c(-c3cnn(C)c3)n2)C[C@H]1C"
Result: > 100 µM

----------
systemUnderTest: Serine/threonine-protein kinase MRCK alpha (Homo sapiens, UniProt Q5VT25)
Sequence (Q5VT25 whole entry, the tested form may be a part): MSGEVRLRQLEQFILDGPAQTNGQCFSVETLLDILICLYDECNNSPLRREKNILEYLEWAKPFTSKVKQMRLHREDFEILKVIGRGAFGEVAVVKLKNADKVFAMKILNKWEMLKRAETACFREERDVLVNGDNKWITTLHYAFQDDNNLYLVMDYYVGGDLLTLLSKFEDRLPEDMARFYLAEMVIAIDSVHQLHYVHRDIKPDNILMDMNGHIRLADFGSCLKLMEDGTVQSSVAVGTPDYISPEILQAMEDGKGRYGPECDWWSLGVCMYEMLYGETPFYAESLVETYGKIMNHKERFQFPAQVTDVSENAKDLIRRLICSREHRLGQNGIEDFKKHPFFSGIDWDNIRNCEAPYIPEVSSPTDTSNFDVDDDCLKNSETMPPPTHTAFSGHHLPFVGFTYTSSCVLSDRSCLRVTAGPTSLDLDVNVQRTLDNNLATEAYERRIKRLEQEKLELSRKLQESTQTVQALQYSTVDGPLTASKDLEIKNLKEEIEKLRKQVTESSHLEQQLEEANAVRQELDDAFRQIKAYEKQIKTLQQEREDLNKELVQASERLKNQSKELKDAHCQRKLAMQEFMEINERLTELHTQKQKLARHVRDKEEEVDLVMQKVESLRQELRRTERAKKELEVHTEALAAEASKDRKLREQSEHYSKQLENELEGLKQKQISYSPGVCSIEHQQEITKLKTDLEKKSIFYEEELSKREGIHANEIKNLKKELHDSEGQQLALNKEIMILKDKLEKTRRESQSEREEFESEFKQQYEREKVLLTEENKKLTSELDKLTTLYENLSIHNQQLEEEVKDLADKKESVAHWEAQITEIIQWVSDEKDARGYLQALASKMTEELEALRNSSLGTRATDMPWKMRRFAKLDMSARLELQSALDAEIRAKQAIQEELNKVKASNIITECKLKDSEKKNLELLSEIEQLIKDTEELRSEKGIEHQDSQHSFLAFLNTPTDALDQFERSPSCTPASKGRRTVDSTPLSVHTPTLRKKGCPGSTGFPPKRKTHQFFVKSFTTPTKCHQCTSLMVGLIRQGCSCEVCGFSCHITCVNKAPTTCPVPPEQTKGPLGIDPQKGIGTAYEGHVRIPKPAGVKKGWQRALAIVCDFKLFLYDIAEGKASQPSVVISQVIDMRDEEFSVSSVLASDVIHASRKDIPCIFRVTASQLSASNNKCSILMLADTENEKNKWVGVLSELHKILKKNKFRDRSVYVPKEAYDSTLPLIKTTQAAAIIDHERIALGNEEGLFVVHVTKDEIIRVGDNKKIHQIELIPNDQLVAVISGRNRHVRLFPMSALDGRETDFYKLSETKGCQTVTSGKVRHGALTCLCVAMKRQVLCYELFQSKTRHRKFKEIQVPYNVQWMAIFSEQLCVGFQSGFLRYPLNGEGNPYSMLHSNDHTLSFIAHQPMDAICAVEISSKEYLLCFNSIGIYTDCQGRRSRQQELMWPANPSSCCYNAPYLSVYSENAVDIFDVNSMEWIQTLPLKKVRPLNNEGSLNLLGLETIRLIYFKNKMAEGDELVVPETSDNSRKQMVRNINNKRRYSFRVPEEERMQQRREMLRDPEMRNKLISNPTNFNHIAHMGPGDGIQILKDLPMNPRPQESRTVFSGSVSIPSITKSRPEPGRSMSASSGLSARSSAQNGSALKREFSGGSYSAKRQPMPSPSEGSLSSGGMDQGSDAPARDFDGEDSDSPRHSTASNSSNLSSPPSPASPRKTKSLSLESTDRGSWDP
assayRemarks: Inhibition of recombinant human His-tagged MRCKalpha catalytic domain (1 to 473 residues) expressed in baculovirus expression system using serine/threonine-13 peptide as substrate incubated for 60 mins in presence of ATP by Z'-LYTE assay
pIC50: −log10 of the molar value.
reportedMetric: pIC50

Query: Need pIC50, item "C[C@@H]1C[C@H]1C(=O)N1CCN(c2cnc(C#N)c(-c3cnn(C)c3)n2)C[C@H]1C"
Result: < 4.00

----------
systemUnderTest: Serine/threonine-protein kinase SIK2 (Homo sapiens, UniProt Q9H0K1)
Sequence (Q9H0K1 whole entry): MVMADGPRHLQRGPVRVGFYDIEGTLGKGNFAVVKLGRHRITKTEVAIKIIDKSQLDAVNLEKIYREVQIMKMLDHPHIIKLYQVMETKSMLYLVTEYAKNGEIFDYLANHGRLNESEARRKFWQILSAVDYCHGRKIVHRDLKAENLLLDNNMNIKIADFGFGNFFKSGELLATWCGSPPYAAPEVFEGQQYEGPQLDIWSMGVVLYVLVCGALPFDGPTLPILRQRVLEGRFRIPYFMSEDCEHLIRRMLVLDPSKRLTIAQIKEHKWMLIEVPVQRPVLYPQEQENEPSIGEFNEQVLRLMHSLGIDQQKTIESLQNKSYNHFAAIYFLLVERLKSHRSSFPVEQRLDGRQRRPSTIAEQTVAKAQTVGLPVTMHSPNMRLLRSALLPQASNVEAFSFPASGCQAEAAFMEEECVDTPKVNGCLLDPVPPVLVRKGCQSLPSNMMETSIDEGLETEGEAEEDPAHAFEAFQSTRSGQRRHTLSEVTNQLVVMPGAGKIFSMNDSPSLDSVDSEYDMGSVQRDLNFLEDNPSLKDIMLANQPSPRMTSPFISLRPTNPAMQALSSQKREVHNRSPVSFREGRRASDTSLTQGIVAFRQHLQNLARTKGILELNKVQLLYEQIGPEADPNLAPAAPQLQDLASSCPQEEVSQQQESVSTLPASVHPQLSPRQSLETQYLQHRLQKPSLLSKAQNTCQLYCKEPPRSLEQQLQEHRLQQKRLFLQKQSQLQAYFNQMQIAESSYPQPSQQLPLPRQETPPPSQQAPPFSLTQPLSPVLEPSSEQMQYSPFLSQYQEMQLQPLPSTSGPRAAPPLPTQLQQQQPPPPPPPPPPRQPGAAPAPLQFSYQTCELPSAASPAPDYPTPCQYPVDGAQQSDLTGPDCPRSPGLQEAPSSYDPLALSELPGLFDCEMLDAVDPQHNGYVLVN
assayRemarks: Inhibition of recombinant full length GST-tagged human SNF1LK2 expressed in baculovirus expression system using Ser/Thr 25 as substrate in presence of ATP after 1 hr by Z'LYTE assay
reportedMetric: IC50

Query: GET /values?readout=IC50&item= "C[C@@H]1C[C@H]1C(=O)N1CCN(c2cnc(C#N)c(-c3cnn(C)c3)n2)C[C@H]1C"
Result: > 100 µM

----------
assayRemarks: Protein binding in Wistar Han rat plasma at 0.05 mg/kg, iv administered as cassette dose
Type: ADME, organism-based
settings: read-out: PPB (converted)
reportedMetric: fraction unbound
API doc: respond with a numeric literal and nothing else, no unit.

                             smilesnotation  quantitativeresult
0  Cn1cc(-c2ncc(C#N)c(N3C[C@@H]4C[C@H]3CN4c3cccc(F)c3)n2)cn1               0.014

Query compound follows.
Query: Looking for the measured fraction unbound of "Cn1cc(-c2ncc(C#N)c(N3C[C@@H]4C[C@H]3CN4C(=O)C3CC3)n2)cn1" , can you help?
Result: 0.54

----------
systemUnderTest: Glycogen synthase kinase-3 beta (Homo sapiens, UniProt P49841)
Sequence (P49841 whole entry): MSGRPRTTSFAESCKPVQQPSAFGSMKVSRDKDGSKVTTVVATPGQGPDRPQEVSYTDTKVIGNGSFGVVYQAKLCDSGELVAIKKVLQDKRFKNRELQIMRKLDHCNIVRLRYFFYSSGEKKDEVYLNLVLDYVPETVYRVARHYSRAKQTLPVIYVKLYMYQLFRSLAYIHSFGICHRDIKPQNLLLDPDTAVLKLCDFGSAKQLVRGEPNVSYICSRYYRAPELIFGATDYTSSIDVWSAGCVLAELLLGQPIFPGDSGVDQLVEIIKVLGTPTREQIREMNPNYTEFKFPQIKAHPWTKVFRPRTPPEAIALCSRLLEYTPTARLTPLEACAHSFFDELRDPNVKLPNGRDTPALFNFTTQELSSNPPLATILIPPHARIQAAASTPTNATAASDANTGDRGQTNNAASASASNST
assayRemarks: Inhibition of recombinant full length human His-tagged GSK3beta expressed in baculovirus expression system using serine/threonine-9 peptide as substrate incubated for 60 mins in presence of ATP by Z'-LYTE assay
reportedMetric: IC50 (µM)
Supply the numeric figure in µM, leaving out any unit text.

Query: Tell me the measured IC50 of "C[C@@H]1C[C@H]1C(=O)N1CCN(c2cnc(C#N)c(-c3cnn(C)c3)n2)C[C@H]1C" , please.
Result: 28.1

----------
systemUnderTest: UniProt:P51813
assayRemarks: Inhibition of recombinant full length human His-tagged BMX cytoplasmic domain expressed in baculovirus expression system using tyrosine-1 peptide as substrate incubated for 60 mins in presence of ATP by Z'-LYTE assay
reportedMetric: IC50

Query: Field request: IC50 | item: "C[C@@H]1C[C@H]1C(=O)N1CCN(c2cnc(C#N)c(-c3cnn(C)c3)n2)C[C@H]1C"
Result: > 100 µM

----------
systemUnderTest: RAC-gamma serine/threonine-protein kinase (Homo sapiens)
assayRemarks: Inhibition of recombinant full length human His-tagged AKT3 expressed in baculovirus expression system using Ser/Thr-06 peptide as substrate incubated for 60 mins in presence of ATP by Z'-LYTE assay
reportedMetric: IC50

Query: Endpoint output: IC50 of "C[C@@H]1C[C@H]1C(=O)N1CCN(c2cnc(C#N)c(-c3cnn(C)c3)n2)C[C@H]1C" . Value?
Result: > 100 µM

----------
systemUnderTest: Calcium/calmodulin-dependent protein kinase type 1 (Homo sapiens, UniProt Q14012)
assayRemarks: Inhibition of full length human CAMK1 alpha expressed in baculovirus expression system using ZIPtide as substrate after 1 hr in presence of ATP by TR-FRET based assay
reportedMetric: IC50

Query: Any idea what IC50 was measured for "C[C@@H]1C[C@H]1C(=O)N1CCN(c2cnc(C#N)c(-c3cnn(C)c3)n2)C[C@H]1C" ?
Result: > 100 µM

----------
systemUnderTest: Calcium/calmodulin-dependent protein kinase type 1D (Homo sapiens, UniProt Q8IU85)
assayRemarks: Inhibition of recombinant full length human His-tagged CAMK1delta expressed in baculovirus expression system using serine/threonine-25 peptide as substrate incubated for 60 mins in presence of ATP by Z'-LYTE assay
reportedMetric: IC50

Query: Find the recorded IC50 belonging to "C[C@@H]1C[C@H]1C(=O)N1CCN(c2cnc(C#N)c(-c3cnn(C)c3)n2)C[C@H]1C" and report it.
Result: > 100 µM

----------
systemUnderTest: Aurora kinase A (Homo sapiens)
assayRemarks: Inhibition of recombinant human full length AURKA expressed in baculovirus expression system using Ser/Thr-01 peptide as substrate after 1 hr in presence of ATP by Z'LYTE assay
reportedMetric: pIC50
pIC50 (log units): -log10 of the concentration in mol/L.

Query: Provide the documented pIC50 with Aurora kinase A (Homo sapiens) as the system for "C[C@@H]1C[C@H]1C(=O)N1CCN(c2cnc(C#N)c(-c3cnn(C)c3)n2)C[C@H]1C"
Result: 4.80

----------
systemUnderTest: Activin receptor type-1B (Homo sapiens)
Sequence (P36896 whole entry, the tested form may be a part): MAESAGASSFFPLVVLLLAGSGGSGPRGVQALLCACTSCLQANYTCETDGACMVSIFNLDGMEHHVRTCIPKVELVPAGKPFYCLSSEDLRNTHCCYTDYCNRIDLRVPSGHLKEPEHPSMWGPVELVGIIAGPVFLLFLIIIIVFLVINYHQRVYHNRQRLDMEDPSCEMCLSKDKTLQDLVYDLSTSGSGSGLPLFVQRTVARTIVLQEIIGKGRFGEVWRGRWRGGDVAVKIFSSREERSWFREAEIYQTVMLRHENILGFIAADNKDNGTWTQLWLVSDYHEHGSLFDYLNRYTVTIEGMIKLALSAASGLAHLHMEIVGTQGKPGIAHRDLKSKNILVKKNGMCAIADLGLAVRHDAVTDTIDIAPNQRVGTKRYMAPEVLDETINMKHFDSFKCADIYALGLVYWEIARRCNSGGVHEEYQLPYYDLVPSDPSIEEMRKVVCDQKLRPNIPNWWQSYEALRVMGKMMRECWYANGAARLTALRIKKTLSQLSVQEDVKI
assayRemarks: Inhibition of recombinant GST-tagged human ALK4 (150 to 505 residues) expressed in baculovirus expression system using Ser/Thr-16 peptide as substrate incubated for 60 mins in presence of ATP by Z'-LYTE assay
reportedMetric: IC50

Query: Using the record for "C[C@@H]1C[C@H]1C(=O)N1CCN(c2cnc(C#N)c(-c3cnn(C)c3)n2)C[C@H]1C" , report its IC50.
Result: > 100 µM

----------
systemUnderTest: Receptor tyrosine-protein kinase erbB-2 (Homo sapiens, UniProt P04626)
assayRemarks: Inhibition of human recombinant ERBB2 (537 to 636 residues) expressed in Escherichia coli using Tyr 06 as substrate after 1 hr in presence of ATP by Z'-LYTE assay
reportedMetric: IC50

Query: Given "C[C@@H]1C[C@H]1C(=O)N1CCN(c2cnc(C#N)c(-c3cnn(C)c3)n2)C[C@H]1C" , state its recorded IC50.
Result: > 100 µM

----------
systemUnderTest: Testis-specific serine/threonine-protein kinase 2 (Homo sapiens, UniProt Q96PF2)
Sequence (Q96PF2 whole entry): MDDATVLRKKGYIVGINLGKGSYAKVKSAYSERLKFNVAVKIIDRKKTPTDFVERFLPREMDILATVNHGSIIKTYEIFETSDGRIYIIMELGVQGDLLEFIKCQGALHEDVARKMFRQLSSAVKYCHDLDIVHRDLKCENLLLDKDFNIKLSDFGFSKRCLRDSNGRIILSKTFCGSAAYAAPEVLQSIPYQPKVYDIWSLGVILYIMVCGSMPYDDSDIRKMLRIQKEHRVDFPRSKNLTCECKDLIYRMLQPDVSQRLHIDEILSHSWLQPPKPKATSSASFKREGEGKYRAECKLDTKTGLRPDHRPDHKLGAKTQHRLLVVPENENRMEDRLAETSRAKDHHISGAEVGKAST
assayRemarks: Inhibition of recombinant full length human His-tagged STK22B expressed in baculovirus expression system using serine/threonine-04 peptide as substrate incubated for 60 mins in presence of ATP by Z'-LYTE assay
pIC50: −log10 of the molar value.
reportedMetric: pIC50

Query: Record request: pIC50 value, item "C[C@@H]1C[C@H]1C(=O)N1CCN(c2cnc(C#N)c(-c3cnn(C)c3)n2)C[C@H]1C"
Result: < 4.00

----------
systemUnderTest: Interleukin-1 receptor-associated kinase 1 (Homo sapiens)
assayRemarks: Inhibition of recombinant human GST-tagged IRAK1 catalytic domain (194 to 712 residues) expressed in baculovirus expression system using Histone H3 (1-20) peptide as substrate incubated for 60 mins in presence of ATP by Adapta assay
reportedMetric: IC50

Query: Look at this molecule and give its reported IC50. "C[C@@H]1C[C@H]1C(=O)N1CCN(c2cnc(C#N)c(-c3cnn(C)c3)n2)C[C@H]1C"
Result: > 100 µM

----------
systemUnderTest: Focal adhesion kinase 1 (Homo sapiens, UniProt Q05397)
Sequence (Q05397 whole entry): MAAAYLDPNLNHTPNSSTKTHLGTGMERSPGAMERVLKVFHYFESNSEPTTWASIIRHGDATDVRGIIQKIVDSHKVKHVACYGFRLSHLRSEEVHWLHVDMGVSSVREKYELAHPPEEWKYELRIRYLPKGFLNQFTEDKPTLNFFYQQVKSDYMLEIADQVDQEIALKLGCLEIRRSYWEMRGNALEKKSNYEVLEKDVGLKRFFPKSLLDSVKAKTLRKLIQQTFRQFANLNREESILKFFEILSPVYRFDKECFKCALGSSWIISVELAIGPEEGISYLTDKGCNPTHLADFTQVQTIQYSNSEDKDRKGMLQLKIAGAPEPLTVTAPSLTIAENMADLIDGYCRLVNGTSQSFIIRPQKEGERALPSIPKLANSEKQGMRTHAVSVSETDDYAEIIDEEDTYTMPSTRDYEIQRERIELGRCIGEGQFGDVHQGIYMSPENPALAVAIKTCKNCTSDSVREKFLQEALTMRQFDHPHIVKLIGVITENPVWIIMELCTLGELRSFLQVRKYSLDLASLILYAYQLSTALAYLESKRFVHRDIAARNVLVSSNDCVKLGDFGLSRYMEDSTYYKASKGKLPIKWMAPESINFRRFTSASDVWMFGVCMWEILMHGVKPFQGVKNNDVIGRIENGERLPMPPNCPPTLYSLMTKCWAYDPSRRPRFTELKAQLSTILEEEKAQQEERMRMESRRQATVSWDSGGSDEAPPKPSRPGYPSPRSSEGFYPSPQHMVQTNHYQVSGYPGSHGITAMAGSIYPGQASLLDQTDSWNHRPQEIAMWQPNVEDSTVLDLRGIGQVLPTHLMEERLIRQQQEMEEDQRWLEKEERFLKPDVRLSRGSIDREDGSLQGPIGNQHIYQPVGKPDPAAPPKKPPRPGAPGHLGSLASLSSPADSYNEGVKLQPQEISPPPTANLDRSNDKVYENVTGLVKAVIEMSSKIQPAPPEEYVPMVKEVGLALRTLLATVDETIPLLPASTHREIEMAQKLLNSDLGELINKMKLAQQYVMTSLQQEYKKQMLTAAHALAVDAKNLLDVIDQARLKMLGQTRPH
assayRemarks: Inhibition of recombinant full length human GST-tagged PTK2 expressed in baculovirus expression system using tyr07 peptide as substrate incubated for 60 mins in presence of ATP by Z'-LYTE assay
pIC50: −log10 of the molar value.
reportedMetric: pIC50

Query: # input compound: "C[C@@H]1C[C@H]1C(=O)N1CCN(c2cnc(C#N)c(-c3cnn(C)c3)n2)C[C@H]1C" ; wanted: its pIC50
Result: < 4.00
